Assayed Target: Human CCR5 receptor (Homo sapiens, UniProt P51681)
Construct: expressed in transfected cells
Sequence (P51681 whole entry): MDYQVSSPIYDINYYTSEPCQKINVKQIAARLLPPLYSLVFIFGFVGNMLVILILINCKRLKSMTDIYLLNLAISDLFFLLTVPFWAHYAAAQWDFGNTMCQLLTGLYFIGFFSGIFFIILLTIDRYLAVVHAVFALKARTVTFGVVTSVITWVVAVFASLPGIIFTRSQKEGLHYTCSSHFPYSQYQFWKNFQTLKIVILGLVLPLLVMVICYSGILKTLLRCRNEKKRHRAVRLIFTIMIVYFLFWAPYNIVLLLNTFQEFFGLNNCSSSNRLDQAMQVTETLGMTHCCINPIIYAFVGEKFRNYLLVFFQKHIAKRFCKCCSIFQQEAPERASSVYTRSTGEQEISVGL
Assay Method Text: Human CCR5 receptor-ligand binding assay (125I chemokine displacement on CHO-Gα16-hCCR5 cells)
Test Conditions: 0.1 nM 125I MIP-1α, RT 2 h, read-out: Binding IC50 Mip-1a
Parameter Measured: pIC50
In simple prose, pIC50 is minus the logarithm base ten of a concentration in moles per litre.

>>> test_value("CCCCC1N(CC2CCCCC2)C(=O)OC12CCN(C1CCN(C(=O)c3c(C)cccc3C)CC1)CC2 (centres unmarked)")
7.74

Request: Give a short answer stating reported pIC50 for CCCC[C@@H]1N(CC2CCCCC2)C(=O)OC12CCN(C1CCN(C(=O)c3c(C)cccc3C)CC1)CC2 .
Result: 8.35
